# Tested on: PRMT1 (protein arginine N-methyltransferase 1)
# assay.info: PRMT1 binders on small-molecule microarrays, primary screen, biochemical, small-molecule microarray, 635 nm fluorescence (AID 1088)
# test.conditions: small-molecule microarray binding, higher = more signal
property.label: composite z-score
# output: bare number, no unit

Inquiry: Can you share its composite z-score? I mean this compound: CCOC(=O)C[C@H]1[C@H](OC(=O)c2ccc(C(=O)c3ccccc3)cc2)[C@@H](NC(=O)C2CCCCC2)c2cc(OCCCO)ccc2N1C(=O)c1ccccc1
Reply text: 1.55

Inquiry: Can you share its composite z-score? I mean this compound: COc1ccc(C#Cc2ccc3c(c2)[C@]2(C(=O)N3)[C@H](C(=O)NC[C@H](O)c3ccccc3)[C@H]3C(=O)O[C@H](c4ccccc4)[C@H](c4ccccc4)N3[C@@H]2c2ccccc2OCCO)cc1
Reply text: 1.54

Inquiry: Can you share its composite z-score? I mean this compound: Cc1ccc(S[C@]2(C(=O)NCC(C)C)CC(=O)N(Cc3ccccc3Cl)[C@@H]2c2ccc(CO)cc2)cc1
Reply text: -0.446

Inquiry: Can you share its composite z-score? I mean this compound: COc1ccc([Si](C)(C)[C@H]2[C@H](CC(=O)N(CCO)Cc3ccccc3)O[C@@]3(C(=O)N(Cc4cccc(N5CCC5=O)c4)c4ccccc43)[C@@H]2C)cc1
Reply text: 1.39

Inquiry: Can you share its composite z-score? I mean this compound: CC(C)c1ccc(NN2C(C(O)c3cccc(O)c3)C=CC3C(=O)N(c4ccccc4)C(=O)C32)cc1 (centres undefined)
Reply text: 1.46

Inquiry: Can you share its composite z-score? I mean this compound: O=C1c2ccccc2[C@@]2(Cc3ccccc3N(Cc3ccccc3)C2=O)[C@H](c2ccc(CO)cc2)N1C1CCCCC1
Reply text: 1.21

Inquiry: Can you share its composite z-score? I mean this compound: COCCOC(=O)N1C(=O)[C@@]2(c3cc(C#CCCO)ccc31)[C@H](C(=O)NC[C@H](O)c1ccccc1)[C@H]1C(=O)O[C@H](c3ccccc3)[C@H](c3ccccc3)N1[C@@H]2c1ccc(O)cc1
Reply text: 0.66

Inquiry: Can you share its composite z-score? I mean this compound: O=C1C2C=CC(C(O)c3ccc(F)cc3)N(Nc3ccccc3)C2C(=O)N1c1ccccc1 (centres undefined)
Reply text: 0.435

Inquiry: Can you share its composite z-score? I mean this compound: CC(C)c1ccc(NN2C(C(O)c3c(F)cccc3Cl)C=CC3C(=O)N(c4ccccc4)C(=O)C32)cc1 (centres undefined)
Reply text: 1.48

Inquiry: Can you share its composite z-score? I mean this compound: COC(=O)[C@@]1(Cc2ccc(F)cc2)[C@H]2c3cc(C(=O)N4CCCC4)n(Cc4cccc5ccccc45)c3C[C@H]2CN1C(=O)c1ccccc1
Reply text: 0.187

Inquiry: Can you share its composite z-score? I mean this compound: O=C(OCCF)C1=CCC(c2cccc(Cl)c2)O1 (centres undefined)
Reply text: 0.581

Inquiry: Can you share its composite z-score? I mean this compound: CC(c1ccccc1)C(O)C1C=CC2C(=O)NC(=O)C2N1Nc1ccccn1 (centres undefined)
Reply text: 1.43

Inquiry: Can you share its composite z-score? I mean this compound: COc1ccc([Si](C)(C)[C@H]2[C@H](CCn3cc(CCO)nn3)O[C@@]3(C(=O)N(Cc4ccc(N5CCOC5=O)cc4)c4ccccc43)[C@@H]2C)cc1
Reply text: 1.37

Inquiry: Can you share its composite z-score? I mean this compound: CN(C)CCCCCCNC(=O)[C@H]1C[C@H]2C(=O)N[C@@H](CCCCN)C(=O)N2[C@H]1c1ccc(O)cc1
Reply text: 1.54
